Source of measurements: the supplement of paper PMC9112550

tested on: Escherichia coli TOP10; assay: shrunken log2 fold change of peptide-encoding DNA abundance (4.5 h post-induction vs induction); higher = less antimicrobial activity (less host growth inhibition); conditions: time post-induction: 4.5 h; library: site-saturation at positions 5, 18, 19, 20
Readout name: shrunken log2 fold change
Keep it simple and answer with nothing but the number.

>  <Sequence string>
RRIRNRPPRLPRPRPRPGAVPRP

>  <Readout name>
shrunken log2 fold change

>  <Reported value>
0.248

$$$$
>  <Sequence string>
RRIRARPPRLPRPRPRPPRYPRP

>  <Readout name>
shrunken log2 fold change

>  <Reported value>
0.896

$$$$
>  <Sequence string>
RRIRQRPPRLPRPRPRPGIQPRP

>  <Readout name>
shrunken log2 fold change

>  <Reported value>
-0.056

$$$$
>  <Sequence string>
RRIRLRPPRLPRPRPRPAHDPRP

>  <Readout name>
shrunken log2 fold change

>  <Reported value>
0.189

$$$$
>  <Sequence string>
RRIRIRPPRLPRPRPRPIHPPRP

>  <Readout name>
shrunken log2 fold change

>  <Reported value>
-0.208

$$$$

Prompt: Tell me shrunken log2 fold change reported for "RRIRMRPPRLPRPRPRPCRWPRP"
Response: 0.00911

Prompt: Tell me shrunken log2 fold change reported for "RRIRNRPPRLPRPRPRPNILPRP"
Response: -0.0518

---

system: Escherichia coli TOP10; test: shrunken log2 fold change of peptide-encoding DNA abundance (4.5 h post-induction vs induction); higher = less antimicrobial activity (less host growth inhibition); settings: time post-induction: 4.5 h; library: site-saturation at positions 5, 18, 19, 20
Known shrunken log2 fold change of a selection of sequences

Use these answered entries as a reference point.
>  <Sequence string>
RRIRLRPPRLPRPRPRPHNDPRP

>  <Readout name>
shrunken log2 fold change

>  <Reported value>
-0.452

$$$$
>  <Sequence string>
RRIRERPPRLPRPRPRPTGEPRP

>  <Readout name>
shrunken log2 fold change

>  <Reported value>
-0.0152

$$$$
>  <Sequence string>
RRIRRRPPRLPRPRPRPMCDPRP

>  <Readout name>
shrunken log2 fold change

>  <Reported value>
0.308

$$$$
>  <Sequence string>
RRIRGRPPRLPRPRPRPNPGPRP

>  <Readout name>
shrunken log2 fold change

>  <Reported value>
0.158

$$$$
>  <Sequence string>
RRIRPRPPRLPRPRPRPWGKPRP

>  <Readout name>
shrunken log2 fold change

>  <Reported value>
0.248

$$$$
>  <Sequence string>
RRIRFRPPRLPRPRPRPHDHPRP

>  <Readout name>
shrunken log2 fold change

>  <Reported value>
-0.508

$$$$

Prompt: Tell me shrunken log2 fold change reported for "RRIRHRPPRLPRPRPRPLYDPRP"
Response: -0.738

Prompt: Tell me shrunken log2 fold change reported for "RRIRSRPPRLPRPRPRPCWYPRP"
Response: -0.393

Prompt: Tell me shrunken log2 fold change reported for "RRIRIRPPRLPRPRPRPHACPRP"
Response: -1.14

Prompt: Tell me shrunken log2 fold change reported for "RRIRFRPPRLPRPRPRPAYYPRP"
Response: -0.227

Prompt: Tell me shrunken log2 fold change reported for "RRIRRRPPRLPRPRPRPLKYPRP"
Response: 0.0102

Prompt: Tell me shrunken log2 fold change reported for "RRIRVRPPRLPRPRPRPFNWPRP"
Response: -0.498

Prompt: Tell me shrunken log2 fold change reported for "RRIRYRPPRLPRPRPRPYPCPRP"
Response: -0.268

---

Known shrunken log2 fold change of a selection of sequences
test system: Escherichia coli TOP10; experiment: shrunken log2 fold change of peptide-encoding DNA abundance (4.5 h post-induction vs induction); higher = less antimicrobial activity (less host growth inhibition); details: time post-induction: 4.5 h; library: site-saturation at positions 5, 18, 19, 20
Keep it simple and answer with nothing but the number.

Use these answered entries as a reference point.
>  <Sequence string>
RRIRKRPPRLPRPRPRPEEDPRP

>  <shrunken log2 fold change>
0.0229

$$$$
>  <Sequence string>
RRIRVRPPRLPRPRPRPQKCPRP

>  <shrunken log2 fold change>
-0.0983

$$$$

Prompt: Tell me shrunken log2 fold change reported for "RRIRNRPPRLPRPRPRPYKGPRP"
Response: -1.13

Prompt: Tell me shrunken log2 fold change reported for "RRIRQRPPRLPRPRPRPLPVPRP"
Response: 0.21

Prompt: Tell me shrunken log2 fold change reported for "RRIRCRPPRLPRPRPRPFRSPRP"
Response: -0.142

Prompt: Tell me shrunken log2 fold change reported for "RRIRTRPPRLPRPRPRPLEAPRP"
Response: 0.115

Prompt: Tell me shrunken log2 fold change reported for "RRIRDRPPRLPRPRPRPWADPRP"
Response: -0.00486

---

test system: Escherichia coli TOP10; assay: shrunken log2 fold change of peptide-encoding DNA abundance (4.5 h post-induction vs induction); higher = less antimicrobial activity (less host growth inhibition); settings: time post-induction: 4.5 h; library: site-saturation at positions 5, 18, 19, 20
Readout name: shrunken log2 fold change
Keep it simple and answer with nothing but the number.

Use these answered entries as a reference point.
>  <Sequence string>
RRIRRRPPRLPRPRPRPIYSPRP

>  <shrunken log2 fold change>
-0.159

$$$$
>  <Sequence string>
RRIRWRPPRLPRPRPRPACHPRP

>  <shrunken log2 fold change>
0.442

$$$$
>  <Sequence string>
RRIRPRPPRLPRPRPRPGETPRP

>  <shrunken log2 fold change>
0.117

$$$$

Prompt: Tell me shrunken log2 fold change reported for "RRIRIRPPRLPRPRPRPRNVPRP"
Response: -0.247

---

test system: Escherichia coli TOP10; test: shrunken log2 fold change of peptide-encoding DNA abundance (4.5 h post-induction vs induction); higher = less antimicrobial activity (less host growth inhibition); settings: time post-induction: 4.5 h; library: site-saturation at positions 5, 18, 19, 20
I would appreciate it if you labelled entries rule met when shrunken log2 fold change is 0.01 or higher, otherwise rule not met.

As a guide, the following entries are already answered.
>  <Sequence string>
RRIRIRPPRLPRPRPRPWFYPRP

>  <Target or test system>
Escherichia coli TOP10

>  <Class name>
rule not met

$$$$
>  <Sequence string>
RRIRKRPPRLPRPRPRPDLSPRP

>  <Target or test system>
Escherichia coli TOP10

>  <Class name>
rule not met

$$$$
>  <Sequence string>
RRIRPRPPRLPRPRPRPMHMPRP

>  <Target or test system>
Escherichia coli TOP10

>  <Class name>
rule met

$$$$
>  <Sequence string>
RRIRRRPPRLPRPRPRPFPDPRP

>  <Target or test system>
Escherichia coli TOP10

>  <Class name>
rule met

$$$$
>  <Sequence string>
RRIRHRPPRLPRPRPRPAIKPRP

>  <Target or test system>
Escherichia coli TOP10

>  <Class name>
rule not met

$$$$

Prompt: Kindly determine if shrunken log2 fold change recorded for "RRIRNRPPRLPRPRPRPEFPPRP" is above or exactly 0.01.
Response: rule met

Prompt: Kindly determine if shrunken log2 fold change recorded for "RRIRFRPPRLPRPRPRPCAVPRP" is above or exactly 0.01.
Response: rule not met

Prompt: Kindly determine if shrunken log2 fold change recorded for "RRIRHRPPRLPRPRPRPSREPRP" is above or exactly 0.01.
Response: rule met

---

Known shrunken log2 fold change of a selection of sequences
tested on: Escherichia coli TOP10; assay: shrunken log2 fold change of peptide-encoding DNA abundance (4.5 h post-induction vs induction); higher = less antimicrobial activity (less host growth inhibition); details: time post-induction: 4.5 h; library: site-saturation at positions 5, 18, 19, 20;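 further: peptides expressed intracellularly from a pBAD plasmid library in pooled LB shake-flask culture, induced with 0.3% L-arabinose, DNA abundance read by NGS, three biological replicates, DESeq2 with apeglm shrinkage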
Keep it simple and answer with nothing but the number.

>  <Sequence string>
RRIRVRPPRLPRPRPRPIFVPRP

>  <shrunken log2 fold change>
-0.0998

$$$$
>  <Sequence string>
RRIRDRPPRLPRPRPRPKTNPRP

>  <shrunken log2 fold change>
-0.0796

$$$$
>  <Sequence string>
RRIRGRPPRLPRPRPRPVHPPRP

>  <shrunken log2 fold change>
2.04

$$$$
>  <Sequence string>
RRIRQRPPRLPRPRPRPKYAPRP

>  <shrunken log2 fold change>
-0.285

$$$$

Prompt: Tell me shrunken log2 fold change reported for "RRIRERPPRLPRPRPRPVRLPRP"
Response: 0.0832

Prompt: Tell me shrunken log2 fold change reported for "RRIRNRPPRLPRPRPRPYYDPRP"
Response: -0.0248

Prompt: Tell me shrunken log2 fold change reported for "RRIRQRPPRLPRPRPRPFPDPRP"
Response: -0.108

Prompt: Tell me shrunken log2 fold change reported for "RRIRDRPPRLPRPRPRPLMDPRP"
Response: 0.172

Prompt: Tell me shrunken log2 fold change reported for "RRIRERPPRLPRPRPRPWVHPRP"
Response: -0.0432

Prompt: Tell me shrunken log2 fold change reported for "RRIRDRPPRLPRPRPRPFLFPRP"
Response: 0.212

Prompt: Tell me shrunken log2 fold change reported for "RRIRVRPPRLPRPRPRPYNYPRP"
Response: -0.845

Prompt: Tell me shrunken log2 fold change reported for "RRIRWRPPRLPRPRPRPSWPPRP"
Response: 0.0582

Prompt: Tell me shrunken log2 fold change reported for "RRIRMRPPRLPRPRPRPQKKPRP"
Response: -0.0151

Prompt: Tell me shrunken log2 fold change reported for "RRIRCRPPRLPRPRPRPMCKPRP"
Response: -0.109

Prompt: Tell me shrunken log2 fold change reported for "RRIRPRPPRLPRPRPRPMRTPRP"
Response: 0.357

Prompt: Tell me shrunken log2 fold change reported for "RRIRSRPPRLPRPRPRPQEEPRP"
Response: -0.0262

Prompt: Tell me shrunken log2 fold change reported for "RRIRNRPPRLPRPRPRPYHKPRP"
Response: -2.76
